Data origin, for the record: patent US20030032157A1

target: T1, human Bcl-XL-GST fusion protein (human, UniProt P08515 1-218 = GST; Q07817 1-211); test: 35S-labeled free peptide on Bcl-XL-GST beads, target concentration varied, scintillation counting; relative Kd
T1 construct: Made in E. coli, immobilized on glutathione Sepharose beads; whole entry named; also called Bcl-XL-glutathione S-transferase (GST) fusion protein; GST-BCL-XL
T1 sequence (P08515 1-218, tags or fused parts left off): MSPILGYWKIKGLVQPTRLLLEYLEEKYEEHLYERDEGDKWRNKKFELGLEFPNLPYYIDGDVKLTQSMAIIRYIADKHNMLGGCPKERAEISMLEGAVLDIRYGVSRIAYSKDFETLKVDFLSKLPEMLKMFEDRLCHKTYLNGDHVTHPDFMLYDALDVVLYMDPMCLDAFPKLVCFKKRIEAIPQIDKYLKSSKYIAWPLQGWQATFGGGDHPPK
Where no end group is shown, it is not given here.
Hi there, I'd appreciate the recorded Kd for every entry that follows.
Write it as a number; the unit nM goes unstated.

Sure, the documented Kd for IAQATKATIDKWNCIKLKIFYTSKKEAS-{FLAG‑M2 epitope} (also: 35S-Met labelled in vitro translation product) [Novel protein I, clone C21] is 70

Sure, the documented Kd for GQVGRQLAIIGDDINRRK [Bak, clone C32] is 402

Sure, the documented Kd for GTRQDRMFETMAIEIEQLLARLTGVNDKMAEYTNA [Golgi SNAP receptor complex member 1, clone V06] is 467

Sure, the documented Kd for FWLEERDFEAGVFELEAIVNSIKRS [Toll-like receptor 3, clone U15] is 781

Sure, the documented Kd for ATRQALNEISARHSGIQQLERSIRELHDIFTFL [Syntaxin 4A, clone U58] is 640

Sure, the documented Kd for AVQEDPVQREIHQDWANREYIEIITSSIKKIAD (also called HSCP300) [HSPC300, clone C68] is 580

Sure, the documented Kd for QRGMLYYQTEKYDLAIKDLKEALIQLRGNN (fragment limits not in text) [Neutrophil cytosolic factor 2, clone T95] is 4.16

Sure, the documented Kd for ASMRQAEPADMRPEIWIAQELRRIGDEFNAYYARE (fragment limits not in text) [Bim, clone T44] is 2

Sure, the documented Kd for GGESDTDPHFQDALMQLAKAVASAAAALVLKAKSVAQR-{FLAG‑M2 epitope} (also: 35S-Met labelled in vitro translation product, fragment limits not in text; also called selected Talin fragment) [Talin (splice variant), clone X56] is 93
